Test system: HL-60
Test: Inhibition of colony formation assays on HL-60 cells
Format: functional
Conditions: Homo sapiens, read-out: ED50 (the source's name)
Experimental Endpoint: EC50 (nM)
Answers are plain numbers, in nM.

Requested read-out EC50, target or system HL-60, entry C=C1/C(=C\C=C2/CCC[C@]3(C)[C@@H](C(CCCC(C)(C)O)CCCC(C)(C)O)CC[C@@H]23)C[C@@H](O)C[C@@H]1O
0.34

meta.source: ChEMBL document CHEMBL1133773
